pIC50: −log10 of the molar value.
Record set of pIC50 for target or system JAK1 (Homo sapiens).

For orientation, consider the following solved cases.
INSERT INTO measurements (compound, measurement_kind, result) VALUES
  ('N#Cc1c[nH]c2nc(Nc3ccc4c(c3)CCC(=O)N4)nc(NC3CC3)c12 [drawing 209]', 'pIC50', '7.00 to 8.00'),
  ('CC(=O)c1c[nH]c2nc(Nc3ccc4cn[nH]c4c3)nc(NC3CC3)c12 [drawing 207]', 'pIC50', '< 6.00'),
  ('N#Cc1c[nH]c2nc(Nc3ccc(S(N)(=O)=O)cc3)nc(NC3CC3)c12 [drawing 210]', 'pIC50', '7.00 to 8.00'),
  ('c1cc2c(NC3CC3)nc(Nc3ccc4cn[nH]c4c3)nc2[nH]1 [drawing 204]', 'pIC50', '6.00 to 7.00'),
  ('N#CCC(=O)N1CCCC(Nc2nc(Nc3ccc(C(N)=O)cc3)nc3[nH]ccc23)C1 (stereo not shown) [drawing 212]', 'pIC50', '7.00 to 8.00'),
  ('NC(=O)c1c[nH]c2nc(Nc3ccc4c(c3)CCC(=O)N4)nc(NC3CC3)c12 [drawing 211]', 'pIC50', '< 6.00');

Shifting focus to the compound that follows.
Query: Item CC(=O)N1CCN(c2ccc(Nc3nc(N4CCC(CN)CC4)c4cc[nH]c4n3)cc2)CC1 [drawing 208] with JAK1 (Homo sapiens) - pIC50?
Response: 6.00 to 7.00

----------
target: full length active recombinant SYK enzyme (Homo sapiens); construct: full length active recombinant SYK enzyme (Millipore, Calif.); purchased Millipore; assay: Inhibition of Syk tyrosine phosphorylation activity (LANCE TR-FRET); assay type: biochemical; conditions: Table 3; 1 nM SYK, 100 μM ATP; read-out: Syk IC50 code
MEASUREMENT KIND: IC50

For orientation, consider the following solved cases.
INSERT INTO assay_data (compound, result) VALUES
  ('NC(=O)c1cnc(-n2ncc3ccc(N)c(Cl)c32)nc1NC1CC1', '100 to 1000 nM'),
  ('CC(=O)N(C)c1ccc(Nc2nc(NCCCCCN)c3cc[nH]c3n2)cc1', '100 to 1000 nM'),
  ('CC(=O)N1CCN(c2ccc(Nc3ncc(F)c(N4CCN(C(=O)CC#N)CC4)n3)cc2)CC1', '> 1000 nM'),
  ('NCC1CCN(c2nc(Nc3ccc4c(c3)CCC(=O)N4)ncc2C2CC2)CC1', '100 to 1000 nM'),
  ('C[C@@H](CO)Nc1nc(Nc2ccc(N3CCNCC3)cc2)nc2[nH]ccc12 [Example 99B]', '100 to 1000 nM'),
  ('O=C(O)CC1CCN(c2nc(Nc3ccc4c(c3)CCC(=O)N4)nc3[nH]ccc23)CC1', '> 1000 nM'),
  ('NC(=O)c1ccc(Nc2ncc(F)c(N[C@H]3CC[C@@H](N)CC3)n2)cc1', '100 to 1000 nM'),
  ('CC(=O)N1CCN(c2ccc(Nc3nc(NCCOCCN)c4cc[nH]c4n3)cc2)CC1', '100 to 1000 nM'),
  ('CN(C(=O)C1CC1)c1ccc(Nc2nc(NC3CC3)c3cc[nH]c3n2)cc1', '100 to 1000 nM'),
  ('c1cc2c(NCCCN3CCOCC3)nc(Nc3ccc4cn[nH]c4c3)nc2[nH]1', '> 1000 nM');

Shifting focus to the compound that follows.
Query: Item `CC(=O)N(C)c1ccc(Nc2nc(Nc3cccc(CN)c3)c3cc[nH]c3n2)cc1` with full length active recombinant SYK enzyme (Homo sapiens) - IC50?
Response: 100 to 1000 nM

----------
target: full length active recombinant SYK enzyme (Homo sapiens); construct: full length active recombinant SYK enzyme (Millipore, Calif.); purchased Millipore; assay: Inhibition of Syk tyrosine phosphorylation activity (LANCE TR-FRET); assay type: biochemical; conditions: Table 4; 1 nM SYK, 100 μM ATP; read-out: syk IC50
MEASUREMENT KIND: IC50

For orientation, consider the following solved cases.
INSERT INTO assay_data (compound, assay_system, measurement_kind, result) VALUES
  ('CC(=O)N(C)c1ccc(Nc2ncc(F)c(N3CCC(CN)CC3)n2)cc1 [Example 29]', 'full length active recombinant SYK enzyme (Homo sapiens)', 'IC50', '0.01 to 0.1 µM'),
  ('c1cc2c(N3CCCCC3)nc(Nc3ccc(N4CCNCC4)cc3)nc2[nH]1 [Example 19]', 'full length active recombinant SYK enzyme (Homo sapiens)', 'IC50', '> 1 µM'),
  ('CC(=O)N1CCN(c2ccc(Nc3ncc(C(N)=O)c(N4CCCC(CO)C4)n3)cc2)CC1 (stereo not shown)', 'full length active recombinant SYK enzyme (Homo sapiens)', 'IC50', '0.1 to 1 µM'),
  ('CC(=O)N1CCN(c2ccc(Nc3ncc(C(N)=O)c(N4CCC(CN)CC4)n3)cc2)CC1 [Example 25]', 'full length active recombinant SYK enzyme (Homo sapiens)', 'IC50', '> 1 µM'),
  ('CC(C)(C)OC(=O)NCC1CCN(c2nc(Nc3ccc(C(N)=O)cc3)ncc2F)CC1 [Example 30]', 'full length active recombinant SYK enzyme (Homo sapiens)', 'IC50', '> 1 µM');

Query: Sample `NC[C@@H]1CCCN1c1nc(Nc2ccc3cn[nH]c3c2)nc2[nH]ccc12` — what was its IC50?
Response: > 1 µM

Query: Sample NCC1CCN(c2nc(Nc3ccc(N4CCNCC4)cc3)nc3[nH]ccc23)CC1 [Example 10] — what was its IC50?
Response: 0.001 to 0.01 µM

----------
This listing pairs molecules with measured pIC50.
biological target: full length active recombinant SYK enzyme (Homo sapiens, UniProt P43405); construct: full length active recombinant SYK enzyme (Millipore, Calif.); purchased Millipore; assay: Inhibition of Syk tyrosine phosphorylation activity (LANCE TR-FRET); format: biochemical; conditions: Table 4; 1 nM SYK, 100 μM ATP; read-out: syk IC50
pIC50: −log10 of the molar value.

For orientation, consider the following solved cases.
INSERT INTO measurements (molecule, measurement_kind, result) VALUES
  ('CC(=O)N1CCN(c2ccc(Nc3nc(N4CCCC(C(N)=O)C4)c4cc[nH]c4n3)cc2)CC1 (centres unmarked)', 'pIC50', '6.00 to 7.00'),
  ('CC(=O)N1CCN(c2ccc(Nc3nc(N4CCC(C(N)=O)CC4)c4cc[nH]c4n3)cc2)CC1', 'pIC50', '6.00 to 7.00'),
  ('CC(=O)N1CCN(c2ccc(Nc3nc(N4CCC(CN)CC4)c4c(C#N)c[nH]c4n3)cc2)CC1', 'pIC50', '7.00 to 8.00');

Query: Item `CC(=O)N1CCN(c2ccc(Nc3ncc(C(N)=O)c(N4CCCN(CCO)CC4)n3)cc2)CC1` with full length active recombinant SYK enzyme (Homo sapiens, UniProt P43405) - pIC50?
Response: 6.00 to 7.00

Query: Item NC(=O)C1CCCN(c2nc(Nc3ccc4cn[nH]c4c3)ncc2F)C1 (centres unmarked) with full length active recombinant SYK enzyme (Homo sapiens, UniProt P43405) - pIC50?
Response: 6.00 to 7.00

Query: Item `NCC1CCN(c2nc(Nc3ccc(C(N)=O)cc3)ncc2F)CC1` with full length active recombinant SYK enzyme (Homo sapiens, UniProt P43405) - pIC50?
Response: 7.00 to 8.00

Query: Item `CC(=O)N1CCN(c2ccc(Nc3nc(N4CCCC4)c4cc[nH]c4n3)cc2)CC1` with full length active recombinant SYK enzyme (Homo sapiens, UniProt P43405) - pIC50?
Response: 6.00 to 7.00

Query: Item `CC(=O)N1CCN(c2ccc(Nc3nc(N4CCC(CN)CC4)c4cc[nH]c4n3)cc2)CC1` with full length active recombinant SYK enzyme (Homo sapiens, UniProt P43405) - pIC50?
Response: 8.00 to 9.00

----------
pIC50: −log10 of the molar value.
Record set of pIC50 for target or system JAK2 (Homo sapiens).

For orientation, consider the following solved cases.
INSERT INTO measurements (compound, result) VALUES
  ('CC(=O)c1c[nH]c2nc(Nc3ccc4cn[nH]c4c3)nc(NC3CC3)c12 [drawing 207]', '< 6.00'),
  ('NC(=O)c1c[nH]c2nc(Nc3ccc4c(c3)CCC(=O)N4)nc(NC3CC3)c12 [drawing 211]', '6.00 to 7.00');

Query: Item c1cc2c(NC3CC3)nc(Nc3ccc4cn[nH]c4c3)nc2[nH]1 [drawing 204] with JAK2 (Homo sapiens) - pIC50?
Response: 6.00 to 7.00

Query: Item N#Cc1c[nH]c2nc(Nc3ccc4c(c3)CCC(=O)N4)nc(NC3CC3)c12 [drawing 209] with JAK2 (Homo sapiens) - pIC50?
Response: 7.00 to 8.00
